Assayed Target: murine iNOS (Mus musculus)
Endpoint: Ki

Incoming: Give recorded Ki with murine iNOS (Mus musculus) for the following compound: Nc1nc(CC2CNCC2NCCNCc2ccc(Cl)cc2)cs1 (stereo not shown) [Compound 3]
Outgoing: 50 µM
